meta.source: PubChem BioAssay AID330

system: P388 leukemia ip, CD2F1 mice, survival T/C; assay: NCI In Vivo Anticancer Drug Screen. Data for tumor model P388 Leukemia (intraperitoneal) in CD2F1 (CDF1) mice; conditions: endpoint: median survival time; dose: 120.0 mg/kg/injection; schedule: Q01DX005 (ip); vehicle: saline with Tween-80; higher = longer survival
Inconclusive results and toxic doses are left out.
MEASUREMENT TYPE: T/C

Look over these answered cases.
{"STRUCTURE SMILES": "Nc1ncnc(N)c1NC(=O)c1ccc(OCc2ccccc2)cc1", "T/C": "99 % of control"}
{"STRUCTURE SMILES": "O=C1C(=Cc2cccnc2)C(=O)c2ccccc21", "T/C": "111 % of control"}
{"STRUCTURE SMILES": "O=c1[nH]c2cc(Cl)ccc2nc1/C=C(\\O)c1cccc2ccccc12", "T/C": "88 % of control"}

Prompt: Look at this compound and give its reported T/C. COc1ccccc1N=Nc1c(-c2cccs2)nn(C(=S)SC)c1C(F)(F)F
Response: 97 % of control

* * *

test system: P388 leukemia ip, CD2F1 mice, survival T/C; test: NCI In Vivo Anticancer Drug Screen. Data for tumor model P388 Leukemia (intraperitoneal) in CD2F1 (CDF1) mice; conditions: endpoint: median survival time; dose: 25.0 mg/kg/injection; schedule: Q01DX009 (ip); vehicle: saline with Tween-80; higher = longer survival
Inconclusive results and toxic doses are left out.
MEASUREMENT TYPE: T/C

Example molecules with recorded T/C:
{"MOLECULE": "O=C(O)CN(CCO)CCN(CC(=O)O)CC(=O)O", "EXPERIMENTAL VALUE": "100 % of control"}
{"MOLECULE": "COc1ccc(OC)c(NC(=O)Oc2cccc(NC(C)=O)c2)c1", "EXPERIMENTAL VALUE": "105 % of control"}
{"MOLECULE": "COC(=O)c1nc2c(n(C)/c1=N/C(=O)Nc1ccccc1)CCCC2", "EXPERIMENTAL VALUE": "120 % of control"}
{"MOLECULE": "CN(c1ccccc1)S(=O)c1ccccc1 (configuration not stated)", "EXPERIMENTAL VALUE": "94 % of control"}
{"MOLECULE": "COc1cc2c[n+](C)c3c4cc5c(cc4ccc3c2cc1OC)OCO5", "EXPERIMENTAL VALUE": "114 % of control"}

Prompt: Item under review: O=C1CCCc2c1[nH]c1ccccc21 . Reported T/C?
Response: 100 % of control

Prompt: Form field: reported T/C of O=c1[nH]cc(S)c(=O)[nH]1
Response: 105 % of control

Prompt: Using the record for [O-]c1ccccc1C=NCCN1CC1.[O-]c1ccccc1C=NCCN1CC1.[Zn+2] , report its T/C.
Response: 100 % of control

Prompt: Please give the measured T/C for this molecule: CSC(=S)N/N=C/c1ccccc1O
Response: 95 % of control

Prompt: // returns reported T/C for input COc1c2occc2cc2ccc(=O)oc12
Response: 121 % of control

Prompt: # lookup: T/C of Nc1nc(N)c2cc(CCc3ccccc3)ccc2n1
Response: 90 % of control

Prompt: Query: T/C; subject: CCOC(=N)Cc1ccccc1
Response: 103 % of control

* * *

Form field: T/C (one value per entry).
tested on: P388 leukemia ip, CD2F1 mice, survival T/C; assay: NCI In Vivo Anticancer Drug Screen. Data for tumor model P388 Leukemia (intraperitoneal) in CD2F1 (CDF1) mice; conditions: endpoint: median survival time; dose: 100.0 mg/kg/injection; schedule: Q01DX009 (ip); vehicle: saline; higher = longer survival
Inconclusive results and toxic doses are left out.

{"MOLECULE": "O=C(O)CP(=O)(O)O", "MEASURED TARGET": "P388 leukemia ip, CD2F1 mice, survival T/C", "EXPERIMENTAL VALUE": "103 % of control"}
{"MOLECULE": "O=C1OC(=O)C2C3C=CC(C4C=C(c5ccccc5)C43)C12 (centres undefined)", "MEASURED TARGET": "P388 leukemia ip, CD2F1 mice, survival T/C", "EXPERIMENTAL VALUE": "92 % of control"}

Prompt: T/C lookup needed for COc1cc2cc3c4cc(OC)c(OC)cc4cc[n+]3c(C)c2cc1OC (tested in a mixture with another compound) , thanks.
Response: 90 % of control

Prompt: What value of measured T/C is listed for Cc1cc(=O)n(-c2ccccc2)c(=O)[nH]1 ?
Response: 111 % of control

Prompt: Please look up its T/C: CCC(CC)c1ccccn1
Response: 101 % of control

Prompt: Name the recorded T/C for O=C(O)C(F)(F)F.O=C(O)C(F)(F)F.O=C(O)C(F)(F)F.O=C(O)C(F)(F)F.[Rh].[Rh] .
Response: 122 % of control

Prompt: Please look up its T/C: O=C(O)c1cc([N+](=O)[O-])cc([N+](=O)[O-])c1Sc1ncccn1
Response: 100 % of control

Prompt: What value of T/C has been reported for the following molecule? CC(C)(C)OP(=O)(NN)OC(C)(C)C
Response: 108 % of control

Prompt: Return reported T/C; argument: CC(C)CC(NC(=O)OC(C)(C)C)C(=O)NC(Cc1c[nH]c2ccccc12)C(=O)NN (centres undefined)
Response: 92 % of control
